# Test system: L1210 leukemia ip in BDF1 mice, survival T/C
# test.protocol: NCI In Vivo Anticancer Drug Screen. Data for tumor model L1210 Leukemia (intraperitoneal) in B6D2F1 (BDF1) mice
# measurement.conditions: endpoint: mean survival time; dose: 200.0 mg/kg/injection; schedule: Q01DX009 (ip); vehicle: Klucel (hydroxypropylcellulose) (HPC); higher = longer survival
Toxic doses and inconclusive results are not listed.
Entries and their measured T/C follow.
measurement.name: T/C

> print(dat)
                                   compound       assay.value
1      O=C(Cc1cccc2ccccc12)N/N=C/c1ccccc1Cl   92 % of control
2                       Nc1c(Br)cc(Br)cc1Br   96 % of control
3                     CN(C)c1ncc(C(N)=O)cn1  108 % of control
4  CC(C)(C)c1ccc(OC(=O)Nc2ccc(O)c(C(=O)O)c2)cc1   94 % of control
5  COc1cc2c(cc1OC)C(CCc1ccc(Cl)cc1)N(C)CC2 (stereo not given)  113 % of control

###

# Test system: L1210 leukemia ip in BDF1 mice, survival T/C
# test.protocol: NCI In Vivo Anticancer Drug Screen. Data for tumor model L1210 Leukemia (intraperitoneal) in B6D2F1 (BDF1) mice
# measurement.conditions: endpoint: mean survival time; dose: 10.0 mg/kg/injection; schedule: Q01DX001 (ip); vehicle: saline; higher = longer survival
Toxic doses and inconclusive results are not listed.
measurement.name: T/C

> print(dat)
                   compound.structure.string                              study.system  measurement.name       assay.value
 1                       N#CSCC(=O)OC1CCCCC1  L1210 leukemia ip in BDF1 mice, survival T/C               T/C   96 % of control
 2  CC(=O)Oc1cc(OC(C)=O)c2c(OC(C)=O)c3c(OC(C)=O)cc(C)cc3cc2c1  L1210 leukemia ip in BDF1 mice, survival T/C               T/C  113 % of control
 3  CC1(C)N=C(N)N=C(N)N1c1cccc(OCCCOc2cccc([N+](=O)[O-])c2)c1  L1210 leukemia ip in BDF1 mice, survival T/C               T/C   97 % of control
 4  CCN1/C(=C/C(C)=C/c2[se]c3ccccc3[n+]2CC)[Se]c2ccc(OC)cc21  L1210 leukemia ip in BDF1 mice, survival T/C               T/C  100 % of control
 5    CC(C)(C)NC/C(=C\c1ccccc1)C(=O)c1ccccc1  L1210 leukemia ip in BDF1 mice, survival T/C               T/C  101 % of control
 6         CCOP(=O)(OCC)Oc1cc(C)c(C#N)c(C)c1  L1210 leukemia ip in BDF1 mice, survival T/C               T/C  108 % of control
 7             CCCCCCCCCCCCSC1=CC(=O)C=CC1=O  L1210 leukemia ip in BDF1 mice, survival T/C               T/C  108 % of control
 8          O=[N+]([O-])c1c(O)cc(O)c2ccccc12  L1210 leukemia ip in BDF1 mice, survival T/C               T/C  106 % of control
 9        COc1cc(C(=O)O)c(Cc2ccccc2)c(OC)c1O  L1210 leukemia ip in BDF1 mice, survival T/C               T/C   97 % of control
10  CC1(C)N=C(N)N=C(N)N1c1cccc(OCCOc2ccc(N)cc2)c1  L1210 leukemia ip in BDF1 mice, survival T/C               T/C   94 % of control
11  C1CN1P1(N2CC2)=NP(N2CC2)(N2CC2)=NP(N2CC2)(N2CC2)=NP(N2CC2)(N2CC2)=N1  L1210 leukemia ip in BDF1 mice, survival T/C               T/C  118 % of control
12  CCC[CH2][Sn]([CH2]CCC)([CH2]CCC)[O]C(=O)CC[S][Sn]([CH2]CCC)([CH2]CCC)[CH2]CCC  L1210 leukemia ip in BDF1 mice, survival T/C               T/C  105 % of control
13             O=[N+]([O-])c1ccccc1CN1CCCCC1  L1210 leukemia ip in BDF1 mice, survival T/C               T/C  102 % of control
